- EXPERIMENTAL TARGET: human IL-17A (hIL-17A) (Homo sapiens, UniProt Q16552)
- Sequence (Q16552 24-155): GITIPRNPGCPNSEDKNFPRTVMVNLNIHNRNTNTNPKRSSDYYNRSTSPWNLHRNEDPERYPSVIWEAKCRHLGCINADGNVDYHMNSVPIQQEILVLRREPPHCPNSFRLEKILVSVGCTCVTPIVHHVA
- EXPERIMENTAL PROTOCOL: IL-17A enzyme-linked immunosorbent assay (competitive ELISA, receptor-ligand binding)
TEST READOUT: pIC50
# pIC50 = -log10(concentration in molar units)

Cc1n[nH]c(C)c1-c1ncc(NC(=O)[C@@H](NC(=O)c2ccnn2C(C)C)C2c3ccc(F)cc3OCC23CC3)cc1F (stereo partly drawn): 6.84

Provide only the value of recorded pIC50 for Cc1n[nH]c(C)c1-c1ccc(NC(=O)[C@@H](NC(=O)c2nonc2C2CC2)C2c3ccc(F)c(F)c3OCC23CC3)cc1 (stereo partly drawn)
6.78

Determine its reported pIC50: Cc1n[nH]c(C)c1-c1ccc(NC(=O)[C@@H](NC(=O)c2ccnn2C(C)C)C2c3c(F)cc(F)cc3OCC23CC3)cc1 (stereo partly drawn)
6.87

---

- EXPERIMENTAL TARGET: hIL-17A (Homo sapiens)
- EXPERIMENTAL PROTOCOL: Inhibition of hIL-17A-induced chemokine GROα/CXCL1 production in HT-29 cell
Recorded log10 of IC50, one value per entry.
Plainly stated, the numbers are log10 of IC50 given in nM.

Cc1n[nH]c(C)c1-c1ccc(NC(=O)[C@@H](NC(=O)c2nonc2C(C)C)C2c3ccc(F)cc3OCC23CC3)cc1F (stereo partly drawn) [Compound 40]: 2.06
Cc1nonc1C(=O)N[C@H](C(=O)Nc1ccc(-c2c(C)n[nH]c2C)nc1)C1c2cc(F)ccc2OCC12CC2 (stereo partly drawn) [Compound 19]: 3.31
Cc1n[nH]c(C)c1-c1ncc(NC(=O)[C@@H](NC(=O)c2nonc2C2CC2)C2c3cc(F)c(F)cc3OCC23CC3)cc1F (stereo partly drawn) [Compound 92]: 3.98
Cc1nonc1C(=O)N[C@H](C(=O)Nc1cnc(-c2c(C)n[nH]c2C)c(F)c1)C1c2ccc(F)cc2CC12CC2 (stereo partly drawn) [Compound 29]: 2.58
Cc1n[nH]c(C)c1-c1ccc(NC(=O)[C@@H](NC(=O)c2nonc2C(C)C)C2c3ccc(F)c(F)c3OCC23CC3)cn1 (stereo partly drawn) [Compound 63]: 2.78

Report measured log10 of IC50; entry is Cc1n[nH]c(C)c1-c1ncc(NC(=O)[C@@H](NC(=O)c2ccnn2C(C)C)C2c3ccc(F)cc3OCC23CC3)cc1F (stereo partly drawn) [Compound 90]
2.27

---

- EXPERIMENTAL TARGET: hIL-17A (Homo sapiens, UniProt Q16552)
- Sequence (Q16552 20-155 limits assumed): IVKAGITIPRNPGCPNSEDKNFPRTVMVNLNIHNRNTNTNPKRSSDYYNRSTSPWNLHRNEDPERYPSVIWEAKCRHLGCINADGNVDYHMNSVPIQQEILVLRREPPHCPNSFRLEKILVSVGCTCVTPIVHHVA
- EXPERIMENTAL PROTOCOL: Inhibition of hIL-17A-induced chemokine GROα/CXCL1 production in HT-29 cell
TEST READOUT: log10 IC50 (log10 of the value in nM)
# values: log10(IC50), units nM

Sample records with log10 IC50:
Cc1n[nH]c(C)c1-c1ncc(NC(=O)[C@@H](NC(=O)c2nonc2C(C)C)C2c3cc(F)cc(F)c3OCC23CC3)cc1F (stereo partly shown) [Compound 68]: 3.29
Cc1nonc1C(=O)N[C@H](C(=O)Nc1ccc(-c2c(C)n[nH]c2C)nc1)C1c2ccc(F)cc2OCC12CC2 (stereo partly shown) [Compound 27]: 2.83
Cc1n[nH]c(C)c1-c1ccc(NC(=O)[C@@H](NC(=O)c2ccnn2C)C2c3cc(F)ccc3OCC23CC3)cn1 (stereo partly shown) [Compound 22]: 3.01
Cc1n[nH]c(C)c1-c1ccc(NC(=O)[C@@H](NC(=O)c2nonc2C2CC2)C2c3ccc(F)c(F)c3OCC23CC3)cc1 (stereo partly shown) [Compound 87]: 2.52
Cc1n[nH]c(C)c1-c1ncc(NC(=O)[C@@H](NC(=O)c2nonc2C(C)C)C2c3ccc(F)c(F)c3OCC23CC3)cc1F (stereo partly shown) [Compound 64]: 2.53

For Cc1n[nH]c(C)c1-c1ccc(NC(=O)[C@@H](NC(=O)c2nonc2C(C)C)C2c3ccc(F)cc3OCC23CC3)cc1 (stereo partly shown) [Compound 28] , write its log10 IC50.
1.92

Given the compound CCn1nccc1C(=O)N[C@H](C(=O)Nc1ccc(-c2c(C)n[nH]c2C)nc1)C1c2cc(F)ccc2OCC12CC2 (stereo partly shown) [Compound 21] , write its reported log10 IC50.
2.70

State its log10 IC50: Cc1n[nH]c(C)c1-c1ncc(NC(=O)[C@@H](NC(=O)c2nonc2C(C)C)C2c3cc(F)c(F)cc3OCC23CC3)cc1F (stereo partly shown) [Compound 46]
2.09

Name the recorded log10 IC50 of the compound listed here: Cc1n[nH]c(C)c1-c1ccc(NC(=O)[C@@H](NC(=O)c2nonc2C(C)C)C2c3cc(F)c(F)cc3OCC23CC3)cc1 (stereo partly shown) [Compound 45]
1.70

Please indicate log10 IC50 recorded for Cc1n[nH]c(C)c1-c1ncc(NC(=O)[C@@H](NC(=O)c2ccnn2C(C)C)C2c3cc(F)c(F)cc3OCC23CC3)cc1F (stereo partly shown) [Compound 47]
2.24

Entry source: patent US20230227437A1
